// data source = patent US10189854B2

This listing pairs compounds with measured IC50.
molecular target: human PDE4B1 (Homo sapiens (Human), UniProt Q07343); experiment: cAMP HTRF assay to determine the activity of hPDE4B1; assay type: biochemical; details: IC50 inhibition of PDE4B; human recombinant PDE4B1, cAMP HTRF assay
Sequence (Q07343 whole entry): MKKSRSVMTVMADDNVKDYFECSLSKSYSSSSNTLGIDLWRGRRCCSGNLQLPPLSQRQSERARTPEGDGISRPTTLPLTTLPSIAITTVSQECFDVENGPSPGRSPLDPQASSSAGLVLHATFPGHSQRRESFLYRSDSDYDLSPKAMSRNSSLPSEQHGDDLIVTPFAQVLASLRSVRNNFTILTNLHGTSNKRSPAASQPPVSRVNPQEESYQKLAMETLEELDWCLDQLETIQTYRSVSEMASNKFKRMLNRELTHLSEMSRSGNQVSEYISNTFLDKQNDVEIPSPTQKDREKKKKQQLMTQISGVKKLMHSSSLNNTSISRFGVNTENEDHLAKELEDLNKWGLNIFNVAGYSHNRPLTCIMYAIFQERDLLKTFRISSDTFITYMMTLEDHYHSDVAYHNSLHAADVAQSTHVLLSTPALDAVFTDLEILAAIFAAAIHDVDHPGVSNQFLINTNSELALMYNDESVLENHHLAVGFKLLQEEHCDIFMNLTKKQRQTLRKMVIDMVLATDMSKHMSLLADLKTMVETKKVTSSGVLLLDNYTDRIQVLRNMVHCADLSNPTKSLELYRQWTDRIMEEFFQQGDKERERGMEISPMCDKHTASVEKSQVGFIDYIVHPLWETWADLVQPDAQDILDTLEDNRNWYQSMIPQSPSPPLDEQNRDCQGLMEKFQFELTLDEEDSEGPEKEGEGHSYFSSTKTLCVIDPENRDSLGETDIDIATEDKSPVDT

1) COc1ccsc1-c1cnc(N2CC3(CC3)c3ccc(C(=O)N4CCOCC4)cc32)nc1 [Compound 139] ... < 0.1 µM
2) O=C(c1ccc2c(c1)N(c1ncc(-c3ccccc3F)cn1)CC21CC1)N1CCC2(COC2)C1 [Compound 68] ... 0.1 to 1 µM

Q: Recorded IC50 of NC(=O)c1ccc(-c2cnc(N3CC4(CC4)c4ccc(C(=O)N5CCOCC5)cc43)nc2)s1 [Compound 152] , please.
A: 0.1 to 1 µM

Q: Recorded IC50 of O=C(c1ccc2c(c1)N(c1ncc(-c3c(F)cncc3F)cn1)CC21CC1)N1CCOCC1 [Compound 166] , please.
A: < 0.1 µM

Q: Recorded IC50 of Cc1cc(-c2cnc(N3CC4(CC4)c4ccc(C(=O)N5CCOCC5)cc43)nc2)ccn1 [Compound 159] , please.
A: < 0.1 µM
